# targetUnderTest: T1, PUF4 RNA-binding domain (Saccharomyces cerevisiae, UniProt P25339 537-888)
# T1 sequence: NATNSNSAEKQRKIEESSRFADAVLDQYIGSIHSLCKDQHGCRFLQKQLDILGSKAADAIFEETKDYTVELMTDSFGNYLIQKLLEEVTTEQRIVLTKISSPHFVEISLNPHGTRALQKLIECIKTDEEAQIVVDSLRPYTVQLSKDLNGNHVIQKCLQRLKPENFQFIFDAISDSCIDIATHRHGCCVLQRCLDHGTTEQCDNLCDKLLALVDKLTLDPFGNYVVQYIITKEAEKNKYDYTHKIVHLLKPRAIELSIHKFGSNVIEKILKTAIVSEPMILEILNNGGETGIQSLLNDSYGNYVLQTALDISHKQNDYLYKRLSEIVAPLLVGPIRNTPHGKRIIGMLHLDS
# testDetails: Mg; RNA-MaP; 20 mM Na-HEPES pH 7.4, 30 mM KOAc, 0.75 mM MgCl2, 0.1% Tween-20, 5% glycerol, 0.1 mg/mL BSA, 2 mM DTT; 25 C; 0.0125-409.6 nM protein
# conditionLabel: tags: N-His6-TEV cleaved; C-SNAP kept, Cy3B-labelled; label: tethered on chip by stalled RNA polymerase
Entries whose Kd is below 20 nM take criterion met; entries at or above 20 nM take criterion not met.

[[record]]
binder = "Id_ii_S2_P3E.4_K3.3_C3.2_[C-2A]_[T-1A]_H3.3_A3.1_F3.1_T3.2_[A10C] (ssRNA) RNA: UUUGAUUAAUAUGAUAUCGUUCUUUCUAAACACUAUAUCUUCUUUCUCGAUAUCAUAUUAAUCUUU"
qualitativelabel = "criterion not met"

[[record]]
binder = "Ic_S4_P4E.1_K4.1_C4.1_H4.1_A4.1_[T5G]_[A6C]_[T7A]_F4.1_[A9C]_T4.1 (ssRNA) RNA: UUUGACAACUGAUCGUUCUUUCUUGUAGCAUCUUCUUUCUCGAUCAGUUGUCUUU"
qualitativelabel = "criterion not met"

[[record]]
binder = "Ic_S4_P5E.1_K5.1_C5.1_H5.1_A5.1_[T6C]_[A7G]_F5.1_[T8C]_[T9C]_[A10G]_T5.1 (ssRNA) RNA: UUUGACAACUGAUCGUUCUUUCUUGUAUCGCCGUUCUUUCUCGAUCAGUUGUCUUU"
qualitativelabel = "criterion not met"

[[record]]
binder = "Ib_S2_P4E.1_K4.1_C4.1_H4.1_[A4G]_A4.1_F4.1_[T8C]_T4.1 (ssRNA) RNA: UUUGAUUAAUAUGAUAUCGUUCUUUCUUGUGUAUCAUUCUUUCUCGAUAUCAUAUUAAUCUUU"
qualitativelabel = "criterion met"

[[record]]
binder = "Ie_S2_P5E.1_K5.1_C5.1_H5.1_[+1CTC]_A5.1_F5.1_T5.1 (ssRNA) RNA: UUUGAUUAAUAUGAUAUCGUUCUUUCUUCUCGUAUUAUUAUUCUUUCUCGAUAUCAUAUUAAUCUUU"
qualitativelabel = "criterion not met"

[[record]]
binder = "Ic_S2_P5E.1_K5.1_C5.1_H5.1_A5.1_[T6G]_[A7C]_F5.1_[T8C]_[T9G]_[A10G]_T5.1 (ssRNA) RNA: UUUGAUUAAUAUGAUAUCGUUCUUUCUUGUAUGCCGGUUCUUUCUCGAUAUCAUAUUAAUCUUU"
qualitativelabel = "criterion not met"

[[record]]
binder = "UCUCUUCUUAUAUAUUAUUUCUCUU (ssRNA) [Id_ii_S1_P4E.3_K4.2_C4.2_H4.2_A4.1_F4.1_T4.2_[G10T]]"
qualitativelabel = "criterion met"

[[record]]
binder = "Ic_S2_P5E.1_K5.1_C5.1_H5.1_A5.1_[T5A]_[A7G]_F5.1_[T8C]_[A10T]_T5.1 (ssRNA) RNA: UUUGAUUAAUAUGAUAUCGUUCUUUCUUGUAAUGCUUUUCUUUCUCGAUAUCAUAUUAAUCUUU"
qualitativelabel = "criterion not met"

[[record]]
binder = "UCUCUUGUUAUAUAUUAUGUCUCUU (ssRNA) [Id_ii_S1_P4E.3_K4.2_C4.2_[C-2G]_H4.2_A4.1_F4.1_T4.2_[G10T]_[T11G]]"
qualitativelabel = "criterion met"

[[record]]
binder = "Ie_S2_P4E.1_K4.1_C4.1_H4.1_[+1CCCTT]_A4.1_F4.1_T4.1 (ssRNA) RNA: UUUGAUUAAUAUGAUAUCGUUCUUUCUUCCCUUGUAUAUUAUUCUUUCUCGAUAUCAUAUUAAUCUUU"
qualitativelabel = "criterion met"

[[record]]
binder = "Id_i_S2_P3E.6_K3.2_C3.3_[T-3A]_[C-2G]_[T-1C]_H3.2_A3.1_F3.1_T3.2 (ssRNA) RNA: UUUGAUUAAUAUGAUAUCGUUCUUUCUAGCUAUAUAUAUAUUCUUUCUCGAUAUCAUAUUAAUCUUU"
qualitativelabel = "criterion not met"

